The entries below are paired with their reported IC50.
biological target: PI3K delta (Homo sapiens, UniProt O00329); construct: for the full-length p110-d subunit are generated and fused by overlapping PCR; His tag (C); Tn5 (Trichoplusia ni) or TiniPro insect cells; experiment: PI3 kinase assay (Kinase-Glo luminescence), PI3K delta; conditions: Enzymatic Data; read-out: PI3K delta IC50 [umol]
Sequence (O00329 with tags, fused parts or gaps limits assumed): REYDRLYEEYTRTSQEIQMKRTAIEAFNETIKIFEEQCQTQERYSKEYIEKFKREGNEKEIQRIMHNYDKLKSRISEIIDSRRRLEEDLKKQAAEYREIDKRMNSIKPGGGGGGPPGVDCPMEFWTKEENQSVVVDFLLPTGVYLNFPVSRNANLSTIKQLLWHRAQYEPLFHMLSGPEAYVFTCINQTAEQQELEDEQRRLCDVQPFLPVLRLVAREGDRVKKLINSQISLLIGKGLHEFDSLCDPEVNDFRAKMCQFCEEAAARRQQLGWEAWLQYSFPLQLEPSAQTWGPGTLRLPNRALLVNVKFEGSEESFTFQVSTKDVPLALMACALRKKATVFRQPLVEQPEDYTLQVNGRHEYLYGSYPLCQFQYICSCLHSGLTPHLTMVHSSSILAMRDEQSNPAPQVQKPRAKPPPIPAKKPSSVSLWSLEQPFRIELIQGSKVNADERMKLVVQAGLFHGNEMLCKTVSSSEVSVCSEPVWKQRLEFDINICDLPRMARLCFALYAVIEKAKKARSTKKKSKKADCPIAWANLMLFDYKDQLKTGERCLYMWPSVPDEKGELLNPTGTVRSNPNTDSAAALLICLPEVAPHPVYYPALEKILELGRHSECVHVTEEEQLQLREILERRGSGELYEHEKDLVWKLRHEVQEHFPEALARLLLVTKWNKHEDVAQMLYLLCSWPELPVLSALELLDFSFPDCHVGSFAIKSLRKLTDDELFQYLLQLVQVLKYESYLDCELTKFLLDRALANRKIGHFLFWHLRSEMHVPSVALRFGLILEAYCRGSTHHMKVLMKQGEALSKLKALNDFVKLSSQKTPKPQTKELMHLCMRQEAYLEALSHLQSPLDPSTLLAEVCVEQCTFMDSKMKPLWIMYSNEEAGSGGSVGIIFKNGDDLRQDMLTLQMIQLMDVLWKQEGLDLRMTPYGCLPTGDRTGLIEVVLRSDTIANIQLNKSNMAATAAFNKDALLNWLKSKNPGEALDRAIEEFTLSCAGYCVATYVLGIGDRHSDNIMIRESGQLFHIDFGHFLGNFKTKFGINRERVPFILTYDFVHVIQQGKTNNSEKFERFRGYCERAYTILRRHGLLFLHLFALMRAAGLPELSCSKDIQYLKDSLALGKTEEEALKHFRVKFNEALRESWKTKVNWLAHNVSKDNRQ
Write down the numeric answer in nM and omit the unit.

COC(=O)NCC1(COc2ccc(-c3ccc4ncc(-c5cnc(N)c(C(F)(F)F)c5)n4n3)cc2)COC1 ... 113
COc1ccc(-c2ccc3ncc(-c4cncc(C(F)(F)F)c4)n3n2)cc1OC ... 401
Nc1ccc(-c2cnc3ccc(-c4cnc(N)c(C(F)(F)F)c4)nn23)cn1 ... 40
Nc1ncc(-c2ccc3ncc(-c4ccc(C(=O)NCCN5CCOCC5)cc4)n3n2)cc1C(F)(F)F ... 57
NCC1(COc2ccc(-c3ccc4ncc(-c5cnc(N)c(C(F)(F)F)c5)n4n3)cc2)COC1 ... 53

q: Any idea what IC50 was measured for Nc1ncc(-c2cnc3ccc(-c4ccc(C(=O)NCCN5CCOCC5)cc4)nn23)cc1C(F)(F)F ?
a: 199

q: Any idea what IC50 was measured for COc1cc(-c2cnc3ccc(-c4cnc(N)c(C(F)(F)F)c4)nn23)ccc1C(=O)N1CCN(CCN2CCOCC2)CC1 ?
a: 6

q: Any idea what IC50 was measured for Nc1ncc(-c2ccc3ncc(-c4cnc5[nH]ccc5c4)n3n2)cc1C(F)(F)F ?
a: 207
